B1: POU domain, class 3, transcription factor 4, residues 280 to 335; numbered along this chain, P49335 (parent)
chain: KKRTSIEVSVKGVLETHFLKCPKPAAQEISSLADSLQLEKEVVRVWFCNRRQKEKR

Variants of: B1
MEASUREMENT DESCRIPTION: abundance fitness (aPCA) (normalised: wild type 0, dead -1); higher = more abundant; growth selection in yeast, the domain comes from the species named
EXPERIMENTAL PARAMETERS: Homo sapiens
# abundance fitness per record follows
REPORTED METRIC: abundance fitness

> print(dat)
    mutation  value.observed
 1      C48I           0.155
 2      K40E           0.192
 3      V13T          -0.502
 4      E41C           -0.84
 5       S5N           0.216
 6      Q27M          -0.344
 7      C21R          -0.742
 8      P22K          -0.315
 9      V43F          -0.567
10       V8D           0.006
11      Q27D           0.147
